The measurements presented in this section are drawn from patent US20110081661A1.

Assayed System: T1, GIP Receptor (Homo sapiens, UniProt P48546)
T1 construct: host or cells: HEK293T
T1 sequence (P48546 22-466): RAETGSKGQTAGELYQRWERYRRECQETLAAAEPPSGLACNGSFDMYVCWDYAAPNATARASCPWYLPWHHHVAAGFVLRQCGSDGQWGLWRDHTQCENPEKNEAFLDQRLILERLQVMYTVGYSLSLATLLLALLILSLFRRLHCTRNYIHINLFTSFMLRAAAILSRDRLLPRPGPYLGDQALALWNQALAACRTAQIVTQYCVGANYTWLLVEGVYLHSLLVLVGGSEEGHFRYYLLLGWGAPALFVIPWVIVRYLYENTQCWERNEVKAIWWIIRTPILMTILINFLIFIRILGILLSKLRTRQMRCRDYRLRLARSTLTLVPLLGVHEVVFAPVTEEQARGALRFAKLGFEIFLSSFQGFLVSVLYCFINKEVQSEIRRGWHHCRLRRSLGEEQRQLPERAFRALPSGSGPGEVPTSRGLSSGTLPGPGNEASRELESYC
Procedure Details: GIP receptor-mediated bioluminescence in HEK293T cells with chimeric promiscuous G protein (FIG. 5, Table II)
Assay type: cell-based
Measurement Context: signal induced by maximal GIP (1 μM) as percentage of signal induced by Triton X-100 with 1 mM Ca^2+
Readout Label: % GPCR/total (%)

{"Molecule": "Mt-obelin: Mitochondrial Wild-type Obelin (mt-Obelin), SEQ ID NO:7 (protein, listed as Obelia longissima) MSVLTPLLLRGLTGSARRLPVPRAKIHSLPPEGKLMSSKYAVKLKTDFDNPRWIKRHKHMFDFLDINGNGKITLDEIVSKASDDICAKLEATPEQTKRHQVCVEAFFRGCGMEYGKEIAFPQFLDGWKQLATSELKKWARNEPTLIREWGDAVFDIFDKDGSGTITLDEWKAYGKISGISPSQEDCEATFRHCDLDNSGDLDVDEMTRQHLGFWYTLDPEADGLYGNGVP", "Assay Value": 116}
